# credit: the supplement of paper PMC10567573

B1: SMG5 (parent)
chain: TNPDLIIVCAQSSQSLWNRLSVLL

# Variants of: B1
# test-method-notes: protein stability index of a GFP-peptide fusion (GPS, HEK-293T) (PSI 1-6); higher = more stable;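 note: lentivirally expressed fusions sorted by FACS into six bins by GFP to DsRed ratio, PSI derived from sequencing read proportions per bin multiplied by bin number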
# experimental-conditions: c terminus: a fixed tail appended
test-readout: protein stability index

Query block: # get_value(readout='protein stability index', item= KNPDLIIVCAQSSQSLWNRLSVLL [T1K] )
Result block: 4.48
